# assayed_system: T1, 4H146-AA
# T1 chain: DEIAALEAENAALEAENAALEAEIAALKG
# experiment_description: two-hybrid library CCmax;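 note: natural log of median RNA to DNA barcode read ratio; higher means stronger binding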
# test_parameters: mean of both orientations
measurement_label: interaction score

Solved cases (2 shown):
>>> observed_value("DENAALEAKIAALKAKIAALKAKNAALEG [4H1391-AA]")
-1.65
>>> observed_value("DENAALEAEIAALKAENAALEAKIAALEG [4H1109-AA]")
-1.63

P = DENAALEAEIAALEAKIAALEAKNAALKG [4H1064-AA]
Q = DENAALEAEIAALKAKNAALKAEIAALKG [4H1146-AA]
R = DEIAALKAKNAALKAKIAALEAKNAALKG [4H1000-AA]
## Task Please give the order of these binders when sorted by interaction score, largest value leading. Present the labels in the sequence the task asks for.
## Result Q, R, P
